Cited source: patent US8101760B2

Experimental system: human androgen receptor (AR) (Homo sapiens, UniProt P10275)
Sequence (P10275 whole entry): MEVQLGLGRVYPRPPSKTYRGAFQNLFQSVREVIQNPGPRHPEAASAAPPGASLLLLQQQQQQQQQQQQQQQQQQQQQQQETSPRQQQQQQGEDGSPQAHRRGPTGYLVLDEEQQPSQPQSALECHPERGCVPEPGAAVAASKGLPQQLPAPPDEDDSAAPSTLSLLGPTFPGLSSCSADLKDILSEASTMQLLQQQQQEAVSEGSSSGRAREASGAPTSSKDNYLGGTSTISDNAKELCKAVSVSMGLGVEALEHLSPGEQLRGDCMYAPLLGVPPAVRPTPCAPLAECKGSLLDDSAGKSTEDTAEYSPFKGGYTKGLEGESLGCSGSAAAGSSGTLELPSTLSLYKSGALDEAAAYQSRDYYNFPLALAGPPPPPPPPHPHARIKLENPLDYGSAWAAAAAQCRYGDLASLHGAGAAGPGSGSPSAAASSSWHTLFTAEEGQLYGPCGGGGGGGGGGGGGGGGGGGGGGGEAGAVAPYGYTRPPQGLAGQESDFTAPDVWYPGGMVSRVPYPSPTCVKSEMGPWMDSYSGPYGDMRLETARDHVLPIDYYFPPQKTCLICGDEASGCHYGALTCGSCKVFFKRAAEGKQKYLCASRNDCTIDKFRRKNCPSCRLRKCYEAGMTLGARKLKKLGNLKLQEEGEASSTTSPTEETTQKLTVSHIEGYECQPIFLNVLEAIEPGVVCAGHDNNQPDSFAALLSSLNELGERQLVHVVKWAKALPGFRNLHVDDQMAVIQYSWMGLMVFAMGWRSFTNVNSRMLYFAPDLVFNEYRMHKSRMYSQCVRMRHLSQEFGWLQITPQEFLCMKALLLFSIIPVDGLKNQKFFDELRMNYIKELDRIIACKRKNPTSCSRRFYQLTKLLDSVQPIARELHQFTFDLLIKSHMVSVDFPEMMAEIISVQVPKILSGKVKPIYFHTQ
Experiment notes: Nuclear hormone receptor functional modulation assay (ARE-luciferase, HEK293), AR
Experimental setup: agonist mode, activating transcription
Property: EC50

I have this compound here, `CC/C(=C1\c2ccc(Cl)cc2OCc2ncccc21)c1cccc(NS(C)(=O)=O)c1` , and I need its recorded EC50.
> 10 µM

* * *

Experimental system: human PR (progesterone receptor) (Homo sapiens, UniProt P06401)
Construct: expressed in transfected cells; host or cells: HEK293 (lysate, '293-PR lysate')
Sequence (P06401 whole entry): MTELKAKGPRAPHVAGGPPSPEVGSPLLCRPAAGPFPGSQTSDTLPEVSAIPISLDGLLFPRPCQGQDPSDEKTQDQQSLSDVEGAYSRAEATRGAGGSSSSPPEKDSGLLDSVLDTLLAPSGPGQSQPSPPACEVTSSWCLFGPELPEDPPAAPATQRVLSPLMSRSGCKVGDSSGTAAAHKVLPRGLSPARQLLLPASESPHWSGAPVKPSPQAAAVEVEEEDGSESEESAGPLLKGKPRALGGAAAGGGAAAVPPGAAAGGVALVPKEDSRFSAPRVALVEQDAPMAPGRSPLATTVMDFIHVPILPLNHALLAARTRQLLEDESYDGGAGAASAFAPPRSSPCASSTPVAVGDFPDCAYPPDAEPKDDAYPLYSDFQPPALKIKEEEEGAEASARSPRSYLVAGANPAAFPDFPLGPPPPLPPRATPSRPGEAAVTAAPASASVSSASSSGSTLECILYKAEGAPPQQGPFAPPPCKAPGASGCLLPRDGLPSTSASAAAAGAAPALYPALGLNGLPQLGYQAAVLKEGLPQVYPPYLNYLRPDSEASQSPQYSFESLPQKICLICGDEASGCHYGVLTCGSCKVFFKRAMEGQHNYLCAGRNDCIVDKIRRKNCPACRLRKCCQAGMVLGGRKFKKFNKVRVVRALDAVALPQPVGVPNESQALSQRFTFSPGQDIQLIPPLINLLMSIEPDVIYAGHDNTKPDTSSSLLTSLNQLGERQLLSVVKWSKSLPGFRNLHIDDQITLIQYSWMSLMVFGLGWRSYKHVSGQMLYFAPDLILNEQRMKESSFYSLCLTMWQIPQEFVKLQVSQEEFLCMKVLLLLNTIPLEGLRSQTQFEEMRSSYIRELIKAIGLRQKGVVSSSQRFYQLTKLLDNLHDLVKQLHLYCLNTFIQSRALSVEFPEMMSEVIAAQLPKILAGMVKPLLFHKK
Experiment notes: Nuclear hormone receptor binding assay, PR
Experimental setup: HEK293 cell lysate expressing human PR, [3H]-methyltrienolone; mean of 5 determinations
Property: pKi
Scale note: pKi = -log10(concentration in M).

Which pKi value is on record for `CC/C(=C1\c2ccc(Cl)cc2OCc2ncccc21)c1cccc(NS(C)(=O)=O)c1` ?
7.51
